# System: MOLM14;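 further: after 48 h exposure read by CellTiter-Glo luminescence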
# Experimental details: cell viability relative to vehicle control; higher = less cytotoxic
# Run conditions: 10 µM; SRSF2 genotype: SRSF2 wt/wt
Structures can show the parent of a compound that is named as a salt.
Property label: cell viability (%)
API: value field is a number in %; no unit string.

For orientation, consider the following solved cases.
Problem: GET /values?readout=cell viability&item= CN1C(=O)COc2c(C(=O)NC3CN4CCC3CC4)cc(Cl)cc21 (configuration not stated) [Azasetron HCl]
Solution: 97.3

Problem: Returns the measured cell viability for the input molecule. Input: CC(C)NCC(O)c1ccccc1Cl (configuration not stated) [Clorprenaline HCL]
Solution: 101

Problem: Please report the recorded cell viability for COc1cc2c(cc1OC)[C@@H](Cc1ccc(O)c(Oc3cc4c(cc3OC)CCN(C)[C@@H]4Cc3ccc(O)cc3)c1)N(C)CC2.[O-][Cl+3]([O-])([O-])O [Liensinine perchlorate] .
Solution: 56.1

Problem: Look up cell viability for this molecule: CNCC(O)c1ccc(O)cc1 (configuration not stated) [Synephrine (Oxedrine)]
Solution: 101

Problem: Quick one: cell viability of COc1ccc(N(C(=O)Oc2c(C)cccc2C)c2ccnc(Nc3ccc(N4CCN(C)CC4)cc3)n2)c(OC)c1 ?
Solution: 35.4

Problem: // query cell viability value for entry COc1cc(C)[nH]c(=O)c1CNC(=O)c1c(C)n([C@H](C)C2CCOCC2)c2ccccc12
Solution: 101

Problem: Look up cell viability: O=c1[nH]c2ccc(Cl)cc2c(N[C@@H]2CN3CCC2CC3)c1-c1nc2ccccc2[nH]1
Solution: -0.01

Problem: Entry COC(=O)C1=CCCN(C)C1 : reported cell viability = ?
Solution: 99.9

More entries:
Problem: Give the measured cell viability of O=C(c1ccccc1O)c1[nH]c(Cl)c(Cl)c1-n1c(C(=O)c2ccccc2O)cc(Cl)c1Cl .
Solution: 12.8

Problem: What does the data say about its cell viability? Entry: O=C1CCC[C@@H]2[C@H]3CCCN4CCC[C@H](CN12)[C@@H]34
Solution: 108

Problem: Name the reported cell viability value associated with the molecule Cl[TeH]1(Cl)(Cl)OCCO1.N
Solution: 74.3

Problem: Consider the molecule shown here: CN(C)[C@@H]1C(=O)C(C(N)=O)=C(O)[C@@]2(O)C(=O)C3=C(O)c4c(O)cccc4[C@@](C)(O)[C@H]3[C@H](O)[C@@H]12 [Oxytetracycline dihydrate] What is its recorded cell viability?
Solution: 103

Problem: Look at this molecule and give its reported cell viability. C[C@@H]1CC[C@@]2(OC1)O[C@H]1C[C@H]3[C@@H]4CC=C5C[C@@H](O[C@@H]6O[C@H](CO)[C@@H](O[C@@H]7O[C@@H](C)[C@H](O)[C@@H](O)[C@H]7O)[C@H](O)[C@H]6O[C@@H]6O[C@@H](C)[C@H](O)[C@@H](O)[C@H]6O)CC[C@]5(C)[C@H]4CC[C@]3(C)[C@H]1[C@@H]2C [Dioscin (Collettiside III)]
Solution: 0.55

Problem: For the molecule shown here, Cc1cccc([C@H](C)c2c[nH]cn2)c1C [Dexmedetomidine] , give the reported cell viability.
Solution: 102

Problem: Using the record for O=c1[nH]c2ccccc2n1CCCN1CCC(n2c(=O)[nH]c3cc(Cl)ccc32)CC1 , report its cell viability.
Solution: 91.8

Problem: Reported cell viability, molecule O=C(CC1NCCCC1O)Cn1cnc2cc(Br)c(Cl)cc2c1=O (configuration not stated) : ____
Solution: 0.52

Problem: Look at this molecule and give its reported cell viability. CC[C@]12C=CCN3CC[C@]4(C(=C(C(=O)OC)C1)Nc1ccccc14)[C@@H]32 [Tabersonine hydrochloride]
Solution: 1.08
